test: Human HepG2 cell viability assay in 384 well format; format: toxicity, cell-based; set-up: dose 125 nL, time 70.5 hour; concentration not given beside the values; details: HepG2 cells, read-out: Inhibition
readout_name: cytotoxicity at 70.5 h (%)
Note: unit % is implicit; provide only the numeric part.

CCN1CC2(CC1=O)CN(C(=O)NC(C)C)CCN(S(C)(=O)=O)C2 (stereo unspecified) :: -2.48
CCS(=O)(=O)N1CCCC2(COCCN(c3nnc(C)o3)C2)C1 (stereo unspecified) :: -1.84
CC(C)N1CCC(CC(=O)N2CCC(C(O)c3nccn3C)CC2)CC1 (stereo unspecified) :: -3.4
CC(C)c1noc(Cn2ncc3ccccc3c2=O)n1 :: -7.17
CSc1ccc(CN(CCO)C(=O)CCc2ccc(O)cc2)cc1 :: -16.6
C=Cc1cccc(CN2C[C@H]3CC[C@@H]2CN(Cc2c(C)noc2C)C3)c1 :: -0.99
COc1c(C2CCCN2CC(=O)Nc2nc(C)cs2)c(C)nn1C (stereo unspecified) :: 3.79
NC(=O)[C@@H]1Cc2ccccc2CN1S(=O)(=O)N1CCCCC1 :: -1.22
Cc1cnn(CC2CN(c3ncnc4ccsc34)CCO2)c1 (stereo unspecified) :: 16
CN1C(=O)CC(C(=O)O)C12CCN(c1ccc3c(n1)CCCC3)CC2 (stereo unspecified) :: -5.19

Any idea what cytotoxicity at 70.5 h was measured for O=C(Cc1ccccc1)N1CCC2(CC1)CC(Nc1cnccn1)CO2 (stereo unspecified) ? -8.13

Any idea what cytotoxicity at 70.5 h was measured for `Cc1cc(C(=O)N2CCN(Cc3ccsc3)CC2)c(C)n1C1CC1` ? -14.9

Any idea what cytotoxicity at 70.5 h was measured for `CC(=O)N1CCC2(CCN(CC3CCCCC3)C2)CC1` ? 3.48

Any idea what cytotoxicity at 70.5 h was measured for `NCc1cnn(-c2ccccc2C(=O)NCc2ccccn2)c1` ? -5.83

Any idea what cytotoxicity at 70.5 h was measured for CC(=O)N1CCC(N2CCC(c3nc(C)cc(C)n3)C2)CC1 (stereo unspecified) ? -3.99

Any idea what cytotoxicity at 70.5 h was measured for `Cc1ccc(CN(C)C(=O)c2cc3c(c(S(N)(=O)=O)c2)CCC3)o1` ? -1.72

Any idea what cytotoxicity at 70.5 h was measured for COCCC(=O)N1CCC(c2ncncc2-c2ccnc(N)c2)C1 (stereo unspecified) ? -3.28

Any idea what cytotoxicity at 70.5 h was measured for `CC(=O)c1cccc(OCC(=O)N(CC(C)C)C2CCN(C)CC2)c1` ? 10.2

Any idea what cytotoxicity at 70.5 h was measured for `O=C(Cn1cc(I)cn1)N1CCCC1` ? -3.36

Any idea what cytotoxicity at 70.5 h was measured for CCn1ncc(CNC(=O)c2cn(CCC3CCCCN3)nn2)c1C (stereo unspecified) ? -6.28

Any idea what cytotoxicity at 70.5 h was measured for `CNC(=O)c1ccc2c(c1)C1(CCN(CC(C)C)CC1)C(=O)N2` ? -10.5

Any idea what cytotoxicity at 70.5 h was measured for `O=C(NC1CC1)[C@@H]1CCO[C@@H]2CCN(Cc3ccco3)C[C@H]21` ? -13.9

Any idea what cytotoxicity at 70.5 h was measured for `CCN(C)c1ncnc2c1CCN(C(=O)c1ccno1)CC2` ? -7.5

----------
assay: Human HepG2 cell viability assay in 384 well format; assay type: toxicity, cell-based; design: dose 125 nL, time 70.5 hour; concentration not given beside the values; conditions: HepG2 cells, read-out: Inhibition
readout_name: cytotoxicity at 70.5 h
Don't forget the unit after the value.

O=S(=O)(NCc1ccccc1Cn1cncn1)N1CCCCCC1 :: -7.52%
Cc1ccc2c(n1)N(C)CCN(CCN1CCCC1)C2 :: 4.19%

Could you now consider this next compound?
Any idea what cytotoxicity at 70.5 h was measured for `CNC(=O)[C@@]12CCC3(CCN(S(=O)(=O)C4CC4)CC3)[C@@H]1CN(C(C)=O)C2` ? 20.2%
